Catalogue of half-life at 1 µM values
Test: Microsomal stability, mouse liver microsomes
Assay type: in vitro ADME
Settings: pH 7.4, 1 µM compound, 0.5 mg/mL microsomal protein, NADPH, 37 °C, read-out: Phase I metabolic stability t1/2, MLMs

>  <CPD SMILES>
CCn1cc(CC(=O)N[C@@H](Cc2ccccc2)c2ncccc2-c2ccc(Cl)cc2)c2ccccc21

>  <half-life at 1 µM / min>
1.4

$$$$
>  <CPD SMILES>
COc1ccc2[nH]cc(CC(=O)N[C@@H](Cc3ccccc3)c3ncccc3-c3ccc(Cl)cc3)c2c1

>  <half-life at 1 µM / min>
0.9

$$$$
>  <CPD SMILES>
CCn1cc(CC(=O)N[C@@H](Cc2ccccc2)c2ncccc2-c2ccc(Cl)cc2)c2cc(OC)ccc21

>  <half-life at 1 µM / min>
1.3

$$$$

Entry source: paper PMC8000227
